- experimental.system: UniProt P25099
observation.type: Ki (µM)

>>> df
                            chemical_smiles  unit_abbrev  result_number
0  CCNC(=O)[C@H]1O[C@@H](n2cnc3c(NCCCCCCNS(=O)(=O)c4cccc5c(N(C)C)cccc45)ncnc32)[C@H](O)[C@@H]1O           µM            4.6

====

- experimental.system: Adenosine receptor A1 (Homo sapiens, UniProt P30542)
- Sequence (P30542 whole entry): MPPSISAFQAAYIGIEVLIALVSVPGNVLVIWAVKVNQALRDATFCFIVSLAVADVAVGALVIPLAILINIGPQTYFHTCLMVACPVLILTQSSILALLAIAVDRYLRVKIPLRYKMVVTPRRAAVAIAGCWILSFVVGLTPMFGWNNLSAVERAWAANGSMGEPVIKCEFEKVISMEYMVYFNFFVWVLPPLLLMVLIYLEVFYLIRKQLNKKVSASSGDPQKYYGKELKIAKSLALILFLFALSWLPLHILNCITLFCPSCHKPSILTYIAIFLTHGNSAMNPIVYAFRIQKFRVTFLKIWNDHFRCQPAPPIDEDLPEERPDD
- assay.notes: Displacement of [3H]CCPA from recombinant human adenosine A1 receptor expressed in CHO cell membranes after 90 mins by liquid scintillation counting method
observation.type: Ki

>>> print(df.to_string())
                            chemical_smiles    result
0  CCCn1c(=O)[nH]c2nc(-c3ccc(OCC(=O)NCCC4=C5C(C)=CC(C)=[N+]5[B-](F)(F)n5c(C)cc(C)c54)cc3)[nH]c2c1=O   ≥ 10 µM
1  CCCn1c(=O)[nH]c2nc(-c3ccc(OCC(=O)NCCCCCC4=C5C(C)=CC(C)=[N+]5[B-](F)(F)n5c(C)cc(C)c54)cc3)[nH]c2c1=O  0.714 µM
2  CCCn1c(=O)[nH]c2nc(-c3ccc(OCC(=O)NCCCCCCCCCCC4=C5C(C)=CC(C)=[N+]5[B-](F)(F)n5c(C)cc(C)c54)cc3)[nH]c2c1=O   > 10 µM

====

- experimental.system: Adenosine receptor A3 (Rattus norvegicus)
- Sequence (P28647 whole entry): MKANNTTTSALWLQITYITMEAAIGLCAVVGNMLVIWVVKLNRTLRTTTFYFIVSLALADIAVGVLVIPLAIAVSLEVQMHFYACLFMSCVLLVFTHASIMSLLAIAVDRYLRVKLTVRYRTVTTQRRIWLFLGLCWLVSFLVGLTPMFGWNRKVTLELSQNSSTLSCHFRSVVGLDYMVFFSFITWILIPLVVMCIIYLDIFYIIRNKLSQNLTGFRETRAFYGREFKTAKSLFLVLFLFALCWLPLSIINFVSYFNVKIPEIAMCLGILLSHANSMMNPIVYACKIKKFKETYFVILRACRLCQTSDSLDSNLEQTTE
observation.type: Ki (µM)

                            chemical_smiles  result_number
0  CCNC(=O)[C@H]1O[C@@H](n2cnc3c(NCCCCCCNS(=O)(=O)c4cccc5c(N(C)C)cccc45)ncnc32)[C@H](O)[C@@H]1O            3.6

====

- experimental.system: Adenosine receptor A3 (Homo sapiens)
- Sequence (P0DMS8 whole entry): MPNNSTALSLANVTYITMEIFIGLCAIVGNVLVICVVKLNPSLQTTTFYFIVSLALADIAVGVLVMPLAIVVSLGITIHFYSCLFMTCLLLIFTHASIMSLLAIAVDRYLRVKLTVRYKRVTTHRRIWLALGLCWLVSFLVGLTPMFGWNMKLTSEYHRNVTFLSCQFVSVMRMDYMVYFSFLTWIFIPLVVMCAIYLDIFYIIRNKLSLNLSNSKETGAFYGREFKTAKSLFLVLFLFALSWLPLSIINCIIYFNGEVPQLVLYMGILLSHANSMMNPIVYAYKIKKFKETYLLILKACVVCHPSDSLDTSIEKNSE
- assay.notes: Displacement of [3H]PSB-11 from recombinant human adenosine A3 receptor expressed in CHO cell membranes after 45 mins by liquid scintillation counting method
pKi: −log10 of the molar value.
Param threshold (6) applies to pKi; output criterion met when value >= threshold, criterion not met when value < threshold.

>>> df
                            chemical_smiles     category_label
0  CCCn1c(=O)[nH]c2nc(-c3ccc(OCC(=O)NCCCc4ccccc4)cc3)[nH]c2c1=O  criterion not met
1  CCCn1c(=O)[nH]c2nc(-c3ccc(OCC(=O)NCCCCCC4=C5C(C)=CC(C)=[N+]5[B-](F)(F)n5c(C)cc(C)c54)cc3)[nH]c2c1=O  criterion not met
2  CCCn1c(=O)[nH]c2nc(-c3ccc(OCC(=O)NCCC4=C5C(C)=CC(C)=[N+]5[B-](F)(F)n5c(C)cc(C)c54)cc3)[nH]c2c1=O  criterion not met
3  CCCn1c(=O)[nH]c2nc(-c3ccc(OCC(=O)NCc4ccccc4)cc3)[nH]c2c1=O      criterion met
4  CCCn1c(=O)[nH]c2nc(-c3ccc(OCC(=O)NCCc4ccccc4)cc3)[nH]c2c1=O  criterion not met
5  CCCn1c(=O)[nH]c2nc(-c3ccc(OCC(=O)NCCCCCCCCCCC4=C5C(C)=CC(C)=[N+]5[B-](F)(F)n5c(C)cc(C)c54)cc3)[nH]c2c1=O  criterion not met

====

- experimental.system: UniProtKB P29275
- Sequence (P29275 whole entry): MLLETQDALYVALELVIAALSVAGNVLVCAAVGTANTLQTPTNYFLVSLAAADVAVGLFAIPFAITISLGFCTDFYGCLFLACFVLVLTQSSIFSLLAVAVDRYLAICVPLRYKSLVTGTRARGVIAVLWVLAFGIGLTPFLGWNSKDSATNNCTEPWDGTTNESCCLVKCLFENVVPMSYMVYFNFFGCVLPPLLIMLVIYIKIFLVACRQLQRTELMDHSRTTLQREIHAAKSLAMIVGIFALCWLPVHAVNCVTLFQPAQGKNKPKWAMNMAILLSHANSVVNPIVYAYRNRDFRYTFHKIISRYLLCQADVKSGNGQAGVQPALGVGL
- assay.notes: biochemical
- Description: Displacement of PSB-12105 from recombinant human adenosine A2B receptor expressed in CHO cell membranes after 60 mins by flow cytometric method
pIC50: −log10 of the molar value.
observation.type: pIC50

>>> print(df.to_string())
                            chemical_smiles  experimental_system  result_number
0  CCCn1c(=O)[nH]c2nc(-c3ccc(S(=O)(=O)N4CCN(c5ccc(Cl)cc5)CC4)cc3)[nH]c2c1=O     UniProtKB P29275           9.27
